testedSystem: B-Raf kinase (SEQ. ID NO: 2) (Homo sapiens (Human), UniProt P15056)
Sequence (P15056 416-766): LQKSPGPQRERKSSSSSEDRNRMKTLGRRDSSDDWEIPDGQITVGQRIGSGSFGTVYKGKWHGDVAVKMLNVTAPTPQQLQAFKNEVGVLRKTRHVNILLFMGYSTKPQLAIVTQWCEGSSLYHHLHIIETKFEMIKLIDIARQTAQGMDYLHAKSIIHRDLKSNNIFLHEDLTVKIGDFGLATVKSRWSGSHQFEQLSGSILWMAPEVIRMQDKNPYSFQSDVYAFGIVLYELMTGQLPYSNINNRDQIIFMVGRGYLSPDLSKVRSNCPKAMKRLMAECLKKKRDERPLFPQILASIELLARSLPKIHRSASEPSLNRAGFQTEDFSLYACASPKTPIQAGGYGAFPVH
testDescription: Biochemical Assay for B-Raf (1)
conditionLabel: Table J, assay version (1); read-out: BRAF (1) IC50
pIC50: −log10 of the molar value.
propertyName: pIC50

Cc1cc(-c2cc(-c3cc(NC(=O)c4ccnc(C(C)(C)C#N)c4)ccc3C)ccn2)ccn1: 6.30 to 7.00
Cc1ncc(NC(=O)c2ccnc(C(C)(C)C#N)c2)cc1-c1cccc(-c2ncnc3[nH]ncc23)c1: ≥ 7.00
Cc1ncc(NC(=O)c2ccnc(C(C)(C)F)c2)cc1-c1cc(-c2ccnc(NC(=O)C3CC3)c2)cnn1: ≥ 7.00
Cc1ccc(NC(=O)c2ccnc(C3(C#N)CC3)c2)cc1-c1ccnc(-c2ccnc(NC(=O)C3CC3)c2)n1: ≥ 7.00

###

Tested on: H2405 cells
testDescription: H2405 Cell Proliferation Assay (1)
Assay type: cell-based
conditionLabel: Homo sapiens, NCI-H2405
pIC50: −log10 of the molar value.
propertyName: pIC50

CNC(=O)c1cc(-c2nccc(-c3cc(NC(=O)c4ccnc(C(C)(C)F)c4)c(F)cc3C)n2)ccn1 [Example 427]: 6.30 to 7.00
CNC(=O)c1cc(-c2cnnc(-c3cc(NC(=O)c4ccnc(C(C)(C)F)c4)ccc3C)c2)ccn1 [Example 325]: 6.30 to 7.00
Cc1ccc(NC(=O)c2cnn(CC(F)(F)F)c2)cc1-c1cncc(-c2ccnc(C(N)=O)c2)c1 [Example 381]: 5.00 to 6.00
Cc1ccc(NC(=O)c2ccnc(C(C)(C)C#N)c2)cc1-c1ccnc(-c2ccnc(NC(=O)C3(C#N)CC3)c2)n1 [Example 241]: ≥ 7.00
CC(=O)Nc1cc(-c2cc(-c3cc(NC(=O)c4ccnc(C(F)(F)F)c4)ccc3C)ccn2)ccn1 [Example 6]: ≥ 7.00
COC(=O)Nc1cc(-c2cnnc(-c3cc(NC(=O)c4ccnc(C(C)(C)F)c4)cnc3C)c2)ccn1 [Example 361]: 6.00 to 6.30
Cc1nc(-c2ccnc(NC(=O)C3CC3)c2)cc(-c2cc(NC(=O)c3ccnc(C4(C#N)CC4)c3)cnc2C)n1 [Example 286]: 6.30 to 7.00

###

testedSystem: B-Raf kinase (SEQ. ID NO: 2) (Homo sapiens (Human), UniProt P15056)
testDescription: Biochemical Assay for B-Raf (2)
conditionLabel: Table J, biochemical assay (2); read-out: BRAF (2)
Recorded IC50 by entry
propertyName: IC50

Cc1cc(-c2cc(NC(=O)c3ccnc(C(C)(C)F)c3)ccc2C)cc(-c2ccnc(C#N)c2)n1: 0.1 to 0.5 µM
CNC(=O)c1cc(-c2cc(-c3cc(NC(=O)c4ccnc(C5(F)CC5)c4)ccc3C)cc(C)n2)ccn1: 0.1 to 0.5 µM
CNC(=O)c1cc(-c2cc(-c3cc(NC(=O)c4ccnc(C(C)(C)F)c4)c(F)cc3F)ccn2)ccn1: 0.1 to 0.5 µM
CNC(=O)c1cc(-c2cncc(-c3cc(NC(=O)c4ccnc(C(C)(F)F)c4)ccc3C)c2)ccn1: ≤ 0.1 µM
CNC(=O)c1cc(-c2cc(-c3cc(NC(=O)c4ccnc(C(C)(F)F)c4)ccc3C)ccn2)ccn1: ≤ 0.1 µM
CC(C)(F)c1cc(C(=O)Nc2ccc(F)c(-c3ccnc(-c4ccnc(C(N)=O)c4)c3)c2)ccn1: ≤ 0.1 µM
CNC(=O)c1cc(-c2cc(-c3cc(NC(=O)c4ccnc(C(C)(C)F)c4)ccc3F)ccn2)ccn1: 0.1 to 0.5 µM
CNC(=O)c1cc(-c2cc(-c3cc(NC(=O)c4ccnc(C(C)C)c4)cnc3C)ccn2)ccn1: 0.1 to 0.5 µM
CNC(=O)c1cc(-c2cc(-c3cc(NC(=O)c4ccnc(C(C)(C)F)c4)ccc3C)ncn2)ccn1: ≤ 0.1 µM
Cc1ccc(NC(=O)c2ccnc(C(C)(C)F)c2)cc1-c1ccnc(-c2ccnc(C(=O)NCC#N)c2)c1: ≤ 0.1 µM
Cc1ccc(NC(=O)c2ccnc(C(C)(C)F)c2)cc1-c1ccnc(-c2ccnc(C(=O)NC3CN(C)C3)c2)c1: 0.1 to 0.5 µM
Cc1ccc(NC(=O)c2ccnc(C(C)(C)F)c2)cc1-c1ccnc(-c2ccnc(C(N)=O)c2)c1: ≤ 0.1 µM
CNC(=O)c1cc(-c2cncc(-c3cc(NC(=O)c4ccnc(C(C)C)c4)ccc3C)c2)ccn1: ≤ 0.1 µM
Cc1ccc(NC(=O)c2ccnc(C(C)(C)C#N)c2)cc1-c1ccnc(-c2ccnc(NC(=O)C3CC3)c2)c1: ≤ 0.1 µM
Cc1ncc(NC(=O)c2ccnc(C(C)C)c2)cc1-c1ccnc(-c2ccnc(NC(=O)C3CC3)c2)c1: ≤ 0.1 µM

Reference source for all entries: patent US12319655B2
